Target: T1, Bdf1 bromodomain 1 (GST-tagged, WT) (Saccharomyces cerevisiae (strain ATCC …, UniProt P35817))
T1 chain: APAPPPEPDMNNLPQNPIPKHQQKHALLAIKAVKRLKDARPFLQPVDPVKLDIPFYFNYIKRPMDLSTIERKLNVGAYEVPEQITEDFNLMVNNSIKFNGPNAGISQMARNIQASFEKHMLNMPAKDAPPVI
Assay: histone peptide array probed with recombinant GST-bromodomain, signal normalised to myc peptide control
Non-standard residues stand in square brackets, D forms with d. No end group written: not given here. Arg(Me2a) = CN(C)C(=N)NCCC[C@H](N)C(=O)O; pS = N[C@@H](COP(=O)(O)O)C(=O)O
ENDPOINT_LABEL: binding score

Examples with answers:
BINDER: SGRGKGGKGLGKGGAKRHR (histone peptides carry modifications given inline in the sequence and in columns 4-7 (Kac, Kme1/2/3, Rme2a/s, Cit, pS/pT); N-terminus free or acetylated)
binding score: 0.00897
--
BINDER: [pS]GRGKQGGKARAK(Ac)AKSRSS [H2a 1-19]
binding score: 0.00484

[1] SGRGKGGKGLGKGGAKRHR (S G R G Kac G G Kac G L G Kac G G A K R H R)
[2] A[Arg(Me2a)]TK(Me3)QTARKSTGGKAPRKQ [H3 1-19]
# compare binding score for 1 vs 2 ; return the one with the smaller value Provide the label of your selected option as the answer. 2
